system: SF-268 CNS; experiment: NCI tumour cell line growth inhibition, 48 h; in the data active = GI50 below about 0.43 µM; inactive = the rest
Lab note: assign the record to one of 1 (active), 0 (inactive)

Worked examples follow.
{"Compound": "CC(=O)OCc1cc[c]([Hg][Cl])o1", "Test system": "SF-268 CNS", "Group": 0}
{"Compound": "CCCCCCCN(CCCCCCC)C(=N)c1ccc(OC)c2ccccc12", "Test system": "SF-268 CNS", "Group": 0}
{"Compound": "COC1C[C@H](O[C@@H]2C[C@H](O[C@@H]3C[C@H](O[C@@H]4C(=O)c5c(cc6cc(O[C@H]7C[C@@H](O[C@H]8C[C@@H](O)[C@H](O)C(C)O8)[C@H](O)C(C)O7)c(C)c(O)c6c5O)C[C@H]4C(OC)C(=O)[C@@H](O)[C@@H](C)O)OC(C)[C@H]3O)OC(C)[C@@H]2O)OC(C)[C@@H]1O (stereo partly drawn)", "Test system": "SF-268 CNS", "Group": 1}
{"Compound": "Nc1nc(N)c2c(n1)NC(c1ccc(Cl)cc1)C1CCc3ccccc3C1=N2 (stereo not drawn)", "Test system": "SF-268 CNS", "Group": 0}
{"Compound": "COc1cccc(/C=C/C(=O)c2cc3c(N)c(C(=O)Nc4ccccc4)sc3nc2C)c1", "Test system": "SF-268 CNS", "Group": 0}
{"Compound": "O=C(Nc1cccc(Cl)c1)Nc1cc(C(F)(F)F)ccc1Cl", "Test system": "SF-268 CNS", "Group": 0}
{"Compound": "O=C(Nc1c(Cl)cccc1Cl)Oc1cccc2cccnc12", "Test system": "SF-268 CNS", "Group": 0}

Next:
# fetch the recorded call for [N-]=[N+]=NCCCn1c2c(c3ccccc3c1=O)C(=O)c1cc3c(cc1-2)OCO3 here
0
